Entries and their INHIBITION
- System: Plasmodium berghei
- measurement_description: Screen against P. berghei liver stage (PbLuc), transformed with Luciferase, at 10uM
- Assay type: functional, HepG2
- conditions_used: tested at 10 uM
Out of some 69,000 compounds screened, about 8,600 (12%) showed an effect of 50% or more. The full list was thinned out, with strong results kept by preference.
Numbers only; they are read as %.

Use the examples below as a reference point.
CCN1C[C@H]2[C@@H](C1)N(S(=O)(=O)c1ccccc1F)CC[C@H]2OC : 32.2
CC(O)(CNS(=O)(=O)Cc1ccon1)c1ccsc1 (stereo not drawn) : 1.98

From here, focus on the item given below.
**Query** Check the records and state INHIBITION for Cc1cc(C(=O)NS(=O)(=O)Cc2ccon2)c(C)o1
**Result** 44.2
